test system: adjuvant (M. butyricum) arthritis; experiment: Chronic adjuvant arthritic screen; type: in vivo; conditions: rats, 8 mg/kg/day I.P., Day 3 to Day 21; Table 2
Would you kindly list Rat Chronic Arthritis for each of these compounds?

Below are some compounds; for each one, tell me its Rat Chronic Arthritis.
1. O=C(O)[BH2-][P+](c1ccccc1)(c1ccccc1)c1ccccc1 [Compound 12]
2. C[N+](C)(C)[BH2-]C#N [Compound 34]
3. CCOC(=O)[BH2-][NH+](C)C [Compound 20]
4. C[NH2+][BH2-]C(=O)O [Compound 2]
5. COc1ccc2c(c1)c(CC(=O)O)c(C)n2C(=O)c1ccc(Cl)cc1 [Indomethacin, indomethacin, reference compound]

1. 49 % of control
2. 4 % of control
3. 13 % of control
4. 53 % of control
5. 55 % of control

Below are some compounds; for each one, tell me its Rat Chronic Arthritis.
1. C[N+](C)([BH2-]C(=O)O)CC[N+](C)(C)[BH2-]C(=O)O [Compound 7]
2. CCCCCCCCCCCCCCCC[N+](C)(C)[BH2-]C(=O)O [Compound 8]

["24 % of control", "40 % of control"]

Which Rat Chronic Arthritis reading was recorded for the compound [BH3-][NH+]1CCOCC1 [Compound 78] ?
33 % of control

----------
Would you kindly list IC50 for each of these compounds?
target: prostaglandin cyclooxygenase; assay: Prostaglandin cyclooxygenase activity, macrophages; type: cell-based, mouse (J774 macrophages); conditions: Table 7
Give bare numbers, in µM.

Below are some compounds; for each one, tell me its IC50.
1. C[NH+](C)[BH2-]C#N
2. C[NH2+][BH2-]C(=O)NO.[H+].c1ccc([B-](c2ccccc2)(c2ccccc2)c2ccccc2)cc1
3. C[N+](C)(C)[BH2-]C#N
4. C[N+](C)(C)[BH2-]C(=O)NO.[H+].c1ccc([B-](c2ccccc2)(c2ccccc2)c2ccccc2)cc1
5. C[N+](C)(C)[BH2-]C(C#N)c1ccccc1 (stereo not shown)
6. COC(=O)[BH2-][NH+](C)C
7. CCCCCCCCCCCCCCCC[N+](C)(C)[BH2-]C(=O)O
8. CCCC[N+](CCCC)(CCCC)CCCC.CCNC(=O)[BH2-][P+]([O-])(OCC)OCC

1: 5.92; 2: 6.61; 3: 5.88; 4: 1.61; 5: 6.59; 6: 2.81; 7: 2.55; 8: 3.09

Below are some compounds; for each one, tell me its IC50.
1. [BH3-][NH+]1CCOCC1
2. CCNC(=O)[BH2-][NH2+]C

1: 1.47; 2: 5.19

----------
tested on: trypsin; assay: Trypsin proteolytic activity, mouse macrophages; assay type: cell-based, mouse (J774 macrophages); conditions: Table 5; read-out: IC50 Trypsin, Mouse Macrophage
measureName: IC50 (nM)
Answers are plain numbers, in nM.

Previously resolved entries follow.
1) CCCCCCCCCCCCCCCCCC[N+](C)(C)[BH2-]C#N [Compound 36] : 4340
2) CCNC(=O)[BH2-][NH2+]C [Compound 23] : 2030
3) C[N+](C)(C)[BH2-]C(C#N)c1ccccc1 (stereo not shown) [Compound 46] : 2400
4) C[N+](C)(C)[BH2-]C(=O)NO.Cl [Compound 77] : 2140
5) CCCCCCCCCCCCCCCC[N+](C)(C)[BH2-]C(=O)O [Compound 8] : 1260
6) O=C(O)[BH2-][NH+]1CCOCC1 [Compound 83] : 2370

Below are some compounds; for each one, tell me its IC50.
1. COC(=O)[BH2-][NH+](C)C [Compound 15]
2. [BH3-][NH2+]C(C)(C)C [Compound 1]
3. CCCCCCCCCCCCCCCC[N+](C)(C)[BH2-]C#N [Compound 35]

2780
2090
2690

Which IC50 reading was recorded for the compound CCOC(=O)[BH2-][NH+](C)C [Compound 20] ?
2020

----------
Target: 5'-lipoxygenase (Mus musculus)
Construct: endogenous in cells
Sequence (P48999 1-674): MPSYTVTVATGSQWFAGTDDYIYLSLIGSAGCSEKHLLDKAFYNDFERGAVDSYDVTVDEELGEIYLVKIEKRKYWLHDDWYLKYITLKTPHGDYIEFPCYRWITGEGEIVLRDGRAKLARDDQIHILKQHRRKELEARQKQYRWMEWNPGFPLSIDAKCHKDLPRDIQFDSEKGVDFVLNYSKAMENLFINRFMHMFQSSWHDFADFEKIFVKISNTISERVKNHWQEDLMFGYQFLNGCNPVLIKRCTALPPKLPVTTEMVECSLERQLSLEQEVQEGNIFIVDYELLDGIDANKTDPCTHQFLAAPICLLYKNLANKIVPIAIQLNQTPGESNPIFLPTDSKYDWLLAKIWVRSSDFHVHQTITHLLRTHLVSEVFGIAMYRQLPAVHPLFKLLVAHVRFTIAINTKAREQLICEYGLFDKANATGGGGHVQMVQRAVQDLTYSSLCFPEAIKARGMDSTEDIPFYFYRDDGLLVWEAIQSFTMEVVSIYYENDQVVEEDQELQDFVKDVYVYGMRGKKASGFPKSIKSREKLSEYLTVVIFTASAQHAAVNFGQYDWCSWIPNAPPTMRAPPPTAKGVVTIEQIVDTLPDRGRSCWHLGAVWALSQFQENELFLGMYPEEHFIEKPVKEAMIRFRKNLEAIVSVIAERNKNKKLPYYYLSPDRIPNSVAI
Assay: 5'-Lipoxygenase activity, mouse macrophages
Conditions: Table 7; read-out: IC50 5'-Lipoxygenase, Mouse Macrophage
IC50 under 9 µM gets Satisfied, anything at or over 9 µM gets Not satisfied.

// below: answered compounds
1) O=C(O)[BH2-][P+](c1ccccc1)(c1ccccc1)c1ccccc1 [Compound 12] : Not satisfied
2) C[NH+](C)[BH2-]C#N [Compound 33] : Not satisfied
3) COC(=O)[BH2-][NH+](C)C [Compound 15] : Satisfied

For C[N+](C)(C)[BH2-]C#N [Compound 34] , is the recorded IC50 below the cut-off of 9 µM?
Satisfied

----------
Would you kindly list Rat Pleurisy for each of these compounds?
test system: carrageenan-induced pleural fluid; assay: Anti-pleurisy screen; type: in vivo, Sprague Dawley male rats; conditions: rats, 8 mg/kg I.P., 1 h before and 3 h after carrageenan; Table 2;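 also: Pleural fluid volume as percent of control rats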

Previously resolved entries follow.
1. CCCCCCCCCCCCCCCC[N+](C)(C)[BH2-]C(=O)O [Compound 8] : 19 % of control
2. C[N+](C)(C)[BH2-]C(=O)NO.[H+].c1ccc([B-](c2ccccc2)(c2ccccc2)c2ccccc2)cc1 [Compound 76] : 50 % of control
3. COc1ccc2c(c1)c(CC(=O)O)c(C)n2C(=O)c1ccc(Cl)cc1 [Indomethacin, indomethacin, reference compound] : 12 % of control

Now look at this one.
Which Rat Pleurisy reading was recorded for the compound CCCCCCCCCCCCCCCCCC[N+](C)(C)[BH2-]C(=O)O [Compound 9] ?
37 % of control

----------
tested on: tail flick response to heat; assay: Hot plate tail flick screen; format: in vivo, CF1 male mice; conditions: 8 mg/kg I.P., hot plate, Table 2
Would you kindly list Mice Tail Flick for each of these molecules?

Previously resolved entries follow.
1) O=C(O)[BH2-][P+](c1ccccc1)(c1ccccc1)c1ccccc1 : 197 % of control
2) CCCCCCCCCCCCCCCCCC[N+](C)(C)[BH2-]C(=O)O : 231 % of control

Below are some molecules; for each one, tell me its Mice Tail Flick.
1. CCNC(=O)[BH2-][NH2+]C
2. CC[NH2+][BH2-]C(=O)O
3. C[NH2+][BH2-]C(=O)NO.[H+].c1ccc([B-](c2ccccc2)(c2ccccc2)c2ccccc2)cc1

1: 81 % of control; 2: 196 % of control; 3: 279 % of control

Below are some molecules; for each one, tell me its Mice Tail Flick.
1. C[N+](C)(C)[BH2-]C(C#N)c1ccccc1 (stereo not shown)
2. C[NH+](C)[BH2-]C(=O)O
3. COC(=O)[BH2-][N+](C)(C)C
4. C[NH2+][BH2-]C(=O)O
5. C[N+](C)(C)[BH2-]C(=O)NO.[H+].c1ccc([B-](c2ccccc2)(c2ccccc2)c2ccccc2)cc1

191 % of control
156 % of control
180 % of control
147 % of control
258 % of control

----------
molecular target: acid phosphatase; assay: Acid phosphatase activity, mouse macrophages; conditions: Table 3; read-out: IC50 Acid Phosphatase, Mouse Macrophage
Would you kindly list IC50 for each of these compounds?
Numbers only, in µM.

1. CCCCCCCCCCCCCCCC[N+](C)(C)[BH2-]C#N : 0.33
2. O=C(O)[BH2-][P+](c1ccccc1)(c1ccccc1)c1ccccc1 : 1.08
3. COC(=O)[BH2-][N+](C)(C)C : 3.55

Below are some compounds; for each one, tell me its IC50.
1. C[NH+](C)[BH2-]C(=O)O
2. C[N+](C)([BH2-]C(=O)O)CC[N+](C)(C)[BH2-]C(=O)O
3. CCNC(=O)[BH2-][NH2+]C

4.75
3.32
1.12
